Ref: patent US6858591B2

# System: E. coli GC 4559
# Test: In vitro MIC, broth dilution
# Type: cell-based
# Experimental Setup: Escherichia coli, GC4559; E. coli GC 4559; read-out: MIC
Result Type: MIC

Some compounds with known MIC results, for comparison:
{"Compound": "CCOC(=O)C(NCCCNC(=O)[C@@H](N)[C@H](C)O)[C@@H](O)[C@H]1O[C@H](n2ccc(=O)[nH]c2=O)[C@H](OC(C)=O)[C@@H]1OC(C)=O (stereo partly drawn) [Example 32]", "Result Type": "MIC", "Measured Result": "> 128 µg/mL"}
{"Compound": "CC(C)C[C@H](NC(=O)OCc1ccccc1)C(=O)NCCCN[C@H](C(=O)OC(C)(C)C)[C@@H](O)C1O[C@@H](n2ccc(=O)[nH]c2=O)[C@H](O[Si](C)(C)C(C)(C)C)[C@@H]1O[Si](C)(C)C(C)(C)C (stereo partly drawn) [Example 6]", "Result Type": "MIC", "Measured Result": "> 128 µg/mL"}

Let us examine a further case.
Q. Which measured MIC value corresponds to CC(C)C[C@H](N)C(=O)NCCCN[C@H](C(=O)OC(C)(C)C)[C@@H](O)C1O[C@@H](n2ccc(=O)[nH]c2=O)[C@H](O[Si](C)(C)C(C)(C)C)[C@@H]1O[Si](C)(C)C(C)(C)C (stereo partly drawn) [Example 7] ?
A. > 128 µg/mL
